Target: OATP1B3 (Homo sapiens, UniProt Q9NPD5)
Construct: expressed in transfected cells; host or cells: HEK293 (recombinant baculovirus-mediated transduction)
Sequence (Q9NPD5 1-702): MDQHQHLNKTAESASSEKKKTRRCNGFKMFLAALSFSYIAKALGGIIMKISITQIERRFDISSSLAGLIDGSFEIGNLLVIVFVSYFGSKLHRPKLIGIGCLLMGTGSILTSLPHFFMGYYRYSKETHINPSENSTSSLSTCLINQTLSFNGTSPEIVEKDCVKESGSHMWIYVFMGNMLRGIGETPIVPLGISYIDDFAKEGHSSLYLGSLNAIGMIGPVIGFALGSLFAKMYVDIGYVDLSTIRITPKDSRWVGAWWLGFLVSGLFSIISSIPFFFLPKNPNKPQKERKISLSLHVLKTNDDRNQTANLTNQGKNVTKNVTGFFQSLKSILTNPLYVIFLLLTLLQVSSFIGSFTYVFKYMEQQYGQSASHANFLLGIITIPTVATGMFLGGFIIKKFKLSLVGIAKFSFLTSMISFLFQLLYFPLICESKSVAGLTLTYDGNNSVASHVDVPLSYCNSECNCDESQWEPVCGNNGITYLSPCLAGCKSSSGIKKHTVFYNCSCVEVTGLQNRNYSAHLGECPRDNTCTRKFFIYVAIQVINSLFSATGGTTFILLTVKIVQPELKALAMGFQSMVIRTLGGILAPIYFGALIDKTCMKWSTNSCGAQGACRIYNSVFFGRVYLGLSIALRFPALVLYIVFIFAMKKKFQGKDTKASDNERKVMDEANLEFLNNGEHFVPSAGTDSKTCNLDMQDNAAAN
Test: Uptake transport assay in OATP1B3-expressing HEK293 cells
Type: cell-based
Settings: human, HEK293 cells transiently expressing OATP1B3, pH 7.4, uptake, 2 min
Below, each entry is listed alongside its reported Km at 2 min.
Respond with the bare value in µM.

>  <Structure smiles>
Cc1onc(-c2c(F)cccc2Cl)c1C(=O)N[C@@H]1C(=O)N2[C@@H]1SC(C)(C)[C@@H]2C(=O)O

>  <Unit label>
µM

>  <Km at 2 min>
18.3

$$$$

Consider now this further molecule.
Form entry - test system: OATP1B3 (Homo sapiens, UniProt Q9NPD5); read-out: Km at 2 min; molecule: "Cc1onc(-c2c(Cl)cccc2Cl)c1C(=O)N[C@@H]1C(=O)N2[C@@H]1SC(C)(C)[C@@H]2C(=O)O"
2.81

###

Below, each entry is listed alongside its reported IC50.
Biological target: OATP2B1 (Homo sapiens, UniProt O94956)
Construct: expressed in transfected cells; host or cells: HEK293 (recombinant baculovirus-mediated transduction)
Sequence (O94956 whole entry): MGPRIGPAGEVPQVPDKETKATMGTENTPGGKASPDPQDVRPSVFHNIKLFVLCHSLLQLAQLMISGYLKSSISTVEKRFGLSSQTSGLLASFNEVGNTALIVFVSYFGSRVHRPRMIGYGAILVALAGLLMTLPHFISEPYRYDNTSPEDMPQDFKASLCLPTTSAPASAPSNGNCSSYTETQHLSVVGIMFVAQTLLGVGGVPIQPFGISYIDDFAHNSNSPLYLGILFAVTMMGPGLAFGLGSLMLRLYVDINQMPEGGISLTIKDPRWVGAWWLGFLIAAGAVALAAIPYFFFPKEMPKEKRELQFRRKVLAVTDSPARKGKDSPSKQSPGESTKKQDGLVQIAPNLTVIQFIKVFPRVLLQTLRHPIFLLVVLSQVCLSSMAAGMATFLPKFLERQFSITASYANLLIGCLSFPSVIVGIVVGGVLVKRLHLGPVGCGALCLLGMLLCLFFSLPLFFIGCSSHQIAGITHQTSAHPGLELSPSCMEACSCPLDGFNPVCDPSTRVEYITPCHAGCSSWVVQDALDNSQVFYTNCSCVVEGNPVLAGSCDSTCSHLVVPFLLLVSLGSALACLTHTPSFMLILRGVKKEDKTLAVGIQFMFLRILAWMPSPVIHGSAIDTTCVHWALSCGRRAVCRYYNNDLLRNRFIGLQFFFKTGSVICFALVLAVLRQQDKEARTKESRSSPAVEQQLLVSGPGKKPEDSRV
Experiment: OATP2B1 inhibition with fluorescent substrate 4′,5′-dibromofluorescein in HEK293 cells
Type: cell-based
Conditions: 1 µM 4′,5′-dibromofluorescein, 5 min, 30 min preincubation
Respond with the bare value in µM.

>  <Structure smiles>
Cc1onc(-c2c(F)cccc2Cl)c1C(=O)N[C@@H]1C(=O)N2[C@@H]1SC(C)(C)[C@@H]2C(=O)O

>  <Unit label>
µM

>  <Numeric readout>
76.4

$$$$

Consider the compound "Cc1onc(-c2c(Cl)cccc2Cl)c1C(=O)N[C@@H]1C(=O)N2[C@@H]1SC(C)(C)[C@@H]2C(=O)O" and give its measured IC50.
37.6

###

Biological target: OATP1B1 (Homo sapiens, UniProt Q9Y6L6)
Construct: expressed in transfected cells; host or cells: HEK293 (recombinant baculovirus-mediated transduction)
Sequence (Q9Y6L6 whole entry): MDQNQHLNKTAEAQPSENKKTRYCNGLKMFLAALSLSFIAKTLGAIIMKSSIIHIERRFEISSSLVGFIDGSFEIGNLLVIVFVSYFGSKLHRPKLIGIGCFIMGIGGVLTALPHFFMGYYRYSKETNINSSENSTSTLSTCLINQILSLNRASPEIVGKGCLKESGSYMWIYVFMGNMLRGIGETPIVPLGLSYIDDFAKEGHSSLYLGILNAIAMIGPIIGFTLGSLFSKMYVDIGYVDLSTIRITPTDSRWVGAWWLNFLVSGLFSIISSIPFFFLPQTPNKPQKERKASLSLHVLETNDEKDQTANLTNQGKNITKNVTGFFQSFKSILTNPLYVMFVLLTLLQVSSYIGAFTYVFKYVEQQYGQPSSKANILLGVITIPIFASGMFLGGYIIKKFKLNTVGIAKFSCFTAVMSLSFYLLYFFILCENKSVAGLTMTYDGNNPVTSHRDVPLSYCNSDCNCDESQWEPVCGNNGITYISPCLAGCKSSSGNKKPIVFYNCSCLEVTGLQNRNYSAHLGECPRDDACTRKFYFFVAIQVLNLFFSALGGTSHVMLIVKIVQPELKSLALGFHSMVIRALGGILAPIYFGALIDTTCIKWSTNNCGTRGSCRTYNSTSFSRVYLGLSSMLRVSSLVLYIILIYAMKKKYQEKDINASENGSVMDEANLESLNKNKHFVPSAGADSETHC
Assay: OATP1B1 inhibition with fluorescent substrate 2′,7′-dichlorofluorescein in HEK293 cells
Type: cell-based
Conditions: 1 µM 2′,7′-dichlorofluorescein, 5 min, 30 min preincubation
Assay metric: pIC50
The meaning of pIC50 here: minus log10 of the concentration in molar units.

Consider the compound Cc1onc(-c2c(F)cccc2Cl)c1C(=O)N[C@@H]1C(=O)N2[C@@H]1SC(C)(C)[C@@H]2C(=O)O [Flucloxacillin] and give its measured pIC50.
5.03
